Catalogue of molecules with associated Ki
# Tested Target: hCRTH2 (Homo sapiens, UniProt Q9Y5Y4)
# Construct: expressed in transfected cells; host or cells: HEK (human embryonic kidney) cells expressing hCRTH2; membrane preparation
# Sequence (Q9Y5Y4 whole entry): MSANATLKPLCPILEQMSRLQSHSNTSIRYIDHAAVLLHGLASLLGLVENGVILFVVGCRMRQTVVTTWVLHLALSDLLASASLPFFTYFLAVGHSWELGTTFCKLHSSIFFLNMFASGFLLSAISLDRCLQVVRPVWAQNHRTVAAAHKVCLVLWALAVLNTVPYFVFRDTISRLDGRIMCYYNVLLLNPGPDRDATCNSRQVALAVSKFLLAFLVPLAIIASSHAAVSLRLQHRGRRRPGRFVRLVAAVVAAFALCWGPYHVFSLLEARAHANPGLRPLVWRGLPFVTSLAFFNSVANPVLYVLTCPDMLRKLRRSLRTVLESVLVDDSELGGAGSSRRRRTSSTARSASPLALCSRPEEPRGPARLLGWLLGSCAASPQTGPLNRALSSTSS
# Test Method Notes: Radioligand binding assay ([3H]PGD2 competition, HEK-hCRTH2 membranes)
# Details: [3H]PGD2 binding, rated A-E (Table A)

Below are worked cases with known answers.
Determine from records and report Ki for C[C@H](NC(=O)c1ccc2nc(-c3ccccc3)c(CCCCC(=O)O)nc2c1)c1ccc(Cl)cc1 [15BM]
2.1 to 20 nM

Identify measured Ki associated with O=C(O)CCCCc1nc2cc(C(=O)NCc3cc(Cl)cc(Cl)c3)ccc2nc1-c1ccc(F)cc1 [compound 108]
2.1 to 20 nM

Return value of Ki for input COCCN1CCN(C(=O)c2ccc3nc(-c4ccccc4)c(CCCCC(=O)O)nc3c2)CC1 [15M] , no commentary.
20.1 to 200 nM

Others:
Return reported Ki. Input molecule: CC(NC(=O)c1ccc2nc(-c3ccc(C(F)(F)F)cc3)c(CCCCC(=O)O)nc2c1)c1ccccn1 (centres unmarked) [3AB]
2.1 to 20 nM

For the molecule O=C(O)CCCCc1nc2cc(C(=O)N3CCC(c4ccccc4)CC3)ccc2nc1-c1ccc(OC(F)(F)F)cc1 [26N] , report Ki.
0.1 to 2 nM

Hello, please tell me recorded Ki for this one: O=C(O)CCCCc1nc2cc(C(=O)N3CC(c4ccccc4)C3)ccc2nc1-c1ccc(Cl)cc1 [16AF]
0.1 to 2 nM

For the molecule C[C@H](c1ccc(Cl)cc1)N(C)C(=O)c1ccc2nc(-c3ccccc3)c(CCCCC(=O)O)nc2c1 [compound 238] , report Ki.
2.1 to 20 nM

Provide measured Ki value, entry: C[C@@H](NC(=O)c1ccc2nc(-c3ccc(Cl)cc3)c(CCCCC(=O)O)nc2c1)c1cccc(F)c1 [compound 178]
0.1 to 2 nM

---

# Tested Target: hCRTH2 (Homo sapiens, UniProt Q9Y5Y4)
# Construct: expressed in transfected cells; host or cells: HEK (human embryonic kidney) cells expressing hCRTH2; membrane preparation
# Test Method Notes: Radioligand binding assay ([3H]PGD2 competition, HEK-hCRTH2 membranes)
# Details: [3H]PGD2 binding, rated A-E (Table A)
Reported Ki values follow for various molecules

Complete the entry with Ki for CC(CCCc1nc2cc(C(=O)N3CCC(c4ccccc4)CC3)ccc2nc1-c1ccc(C(F)(F)F)cc1)C(=O)O (centres unmarked)
2.1 to 20 nM

Tell me its Ki given CC(CCc1nc2cc(C(=O)N[C@@H](c3ccccc3)C(F)(F)F)ccc2nc1-c1ccc(Cl)cc1)CC(=O)O (some centres unmarked) [17M] as the entry.
2.1 to 20 nM

Look up and state reported Ki for O=C(O)CCCCc1nc2cc(C(=O)N3CC(c4nc5ccccc5[nH]4)C3)ccc2nc1-c1ccccc1
2.1 to 20 nM

Provide one value: measured Ki of O=C(O)CCCCc1nc2cc(C(=O)NCc3ccc(Cl)cc3)ccc2nc1-c1ccc(F)cc1
0.1 to 2 nM

Please indicate Ki recorded for O=C(O)CCCCc1nc2cc(C(=O)N3CCOCC3)ccc2nc1-c1ccc(Cl)cc1
2.1 to 20 nM

Tell me measured Ki for O=C(O)CCCCc1nc2cc(C(=O)NCc3ccc(Cl)cc3)ccc2nc1-c1ccccc1 [15T] please.
0.1 to 2 nM

For C[C@@H](c1ccc(F)cc1)N(C)C(=O)c1ccc2nc(-c3ccc(F)cc3)c(CCCCC(=O)O)nc2c1 , write its Ki.
2.1 to 20 nM

Determine from records and report Ki for O=C(O)CCCCc1nc2cc(C(=O)N3CCC(c4ccc(Cl)cc4)CC3)ccc2nc1-c1ccc(F)cc1
2.1 to 20 nM

---

Here the recorded pKi is given for each entry.
# Tested Target: hCRTH2 (Homo sapiens, UniProt Q9Y5Y4)
# Construct: expressed in transfected cells; host or cells: HEK (human embryonic kidney) cells expressing hCRTH2; membrane preparation
# Test Method Notes: Radioligand binding assay ([3H]PGD2 competition, HEK-hCRTH2 membranes)
# Details: [3H]PGD2 competition, Table B
pKi: −log10 of the molar value.

Give the measured pKi for C[C@@H]1CN(c2ccc(Cl)cc2)CCN1C(=O)c1ccc2nc(-c3ccccc3)c(CCCCC(=O)O)nc2c1 [compound 550]
7.70 to 8.68

Query pKi for C[C@H](NC(=O)c1ccc2nc(-c3ccccc3)c(CCCCC(=O)O)nc2c1)c1cncc2ccccc12 [compound 637]
7.70 to 8.68

Specify pKi for CC[C@@H](NC(=O)c1ccc2nc(-c3ccc(Cl)cc3)c(CCCCC(=O)O)nc2c1)c1ccc(F)cc1 [compound 376] and stop.
7.70 to 8.68

Retrieve pKi measured for CC(CCCc1nc2cc(C(=O)N[C@@H]3CCCc4cc(Cl)ccc43)ccc2nc1-c1ccccc1)C(=O)O (stereo partly shown) [compound 458] and print it.
7.70 to 8.68

---

# Tested Target: hCRTH2 (Homo sapiens, UniProt Q9Y5Y4)
# Construct: expressed in transfected cells; host or cells: HEK (human embryonic kidney) cells expressing hCRTH2; membrane preparation
# Test Method Notes: Radioligand binding assay ([3H]PGD2 competition, HEK-hCRTH2 membranes)
# Details: [3H]PGD2 competition, Table B
# Description: Biological Assays Radioligand Binding Assay. Radioligand binding assays were performed at room temperature in 50 mM Tris-HCl pH 7.4, 1 mM EDTA containing 2 mM MnCl2 and 3.0 nM [^3H]PGD2 (New England Nuclear, Boston, Mass.) (171 Ci mmol^−1), in a final volume of 0.2 mL. […] Total and non-specific binding were determined in the absence and the presence of 10 μM PGD2, respectively. […] The radioactivity was measured with Betaplate model 1205 (Wallac).
pKi: −log10 of the molar value.
Overview of recorded pKi for various molecules

Give a short answer stating reported pKi for Cc1ccc(N2CCN(C(=O)c3ccc4nc(-c5ccc(F)cc5)c(CCCCC(=O)O)nc4c3)CC2)cc1 .
7.70 to 8.68

Output measured pKi for this item: O=C(O)Cc1cccc(CCCc2nc3cc(C(=O)N4CCN(c5ccccc5)CC4)ccc3nc2-c2ccc(Cl)cc2)c1
6.70 to 7.70

Give the reported value of pKi for this record: C[C@H](NC(=O)c1ccc2nc(-c3ccccc3)c(CCCCC(=O)O)nc2c1)c1cccc2ncccc12
7.70 to 8.68

***
Note pKi for the molecule shown: C[C@H](CCc1nc2cc(C(=O)N(C)Cc3ccc(F)cc3)ccc2nc1-c1ccccc1)CC(=O)O
6.15 to 6.70

Please indicate pKi recorded for O=C(O)CCCCc1nc2cc(C(=O)N3CCN(c4cccc(Cl)c4Cl)CC3)ccc2nc1-c1ccc(Cl)cc1
8.70 to 10.00

Write down pKi measured for item O=C(O)CCCCc1nc2cc(C(=O)N[C@@H]3CCS(=O)(=O)c4ccccc43)ccc2nc1-c1ccc(Cl)cc1
7.70 to 8.68

Dear colleague, please send me the reported pKi for O=C(O)CCCCc1nc2cc(C(=O)N[C@@H]3CCCCc4ccccc43)ccc2nc1-c1ccc(Cl)cc1 when you can.
7.70 to 8.68

Give the measured pKi for O=C(O)CCCCc1nc2cc(C(=O)N[C@@H]3CCOc4cc(F)ccc43)ccc2nc1-c1ccccc1
8.70 to 10.00

Specify reported pKi for the molecule shown: C[C@H](CCc1nc2cc(C(=O)N[C@H](C)c3ccc(F)cc3)ccc2nc1-c1ccc(Cl)cc1)CC(=O)O
7.70 to 8.68

Retrieve pKi measured for O=C(O)CCCCc1nc2cc(C(=O)N3CC(n4cccn4)C3)ccc2nc1-c1ccc(Cl)cc1 and print it.
7.70 to 8.68

Item C[C@H](NC(=O)c1ccc2nc(-c3ccc(F)cc3)c(CCCCC(=O)O)nc2c1)c1cccc2ccccc12 : provide pKi
7.70 to 8.68

Look up and report measured pKi for this entry: O=C(O)CCCCc1nc2cc(C(=O)N3CCCCC3c3ccccn3)ccc2nc1-c1ccc(Cl)cc1 (stereo not drawn)
6.70 to 7.70

Could you please provide reported pKi for O=C(N[C@@H]1CCCc2ccccc21)c1ccc2nc(-c3ccc(F)cc3)c(CC[C@H]3C[C@@H]3C(=O)O)nc2c1 ? Thanks!
7.70 to 8.68

Using the record for O=C(O)CCCCc1nc2cc(C(=O)N3CCN(c4ccccc4Cl)CC3)ccc2nc1-c1ccccc1 , state its measured pKi.
7.70 to 8.68

Recall and state the measured pKi for CC(CCCc1nc2cc(C(=O)N[C@@H](C)c3ccc(Cl)cc3)ccc2nc1-c1ccc(F)cc1)C(=O)O (stereo partly drawn) .
6.70 to 7.70

---

Quick reference: pKi of the listed items.
# Tested Target: hCRTH2 (Homo sapiens, UniProt Q9Y5Y4)
# Construct: expressed in transfected cells; host or cells: HEK (human embryonic kidney) cells expressing hCRTH2; membrane preparation
# Test Method Notes: Radioligand binding assay ([3H]PGD2 competition, HEK-hCRTH2 membranes)
# Details: [3H]PGD2 binding, rated A-E (Table A)
# Protocol: Biological Assays Radioligand Binding Assay. Radioligand binding assays were performed at room temperature in 50 mM Tris-HCl pH 7.4, 1 mM EDTA containing 2 mM MnCl2 and 3.0 nM [^3H]PGD2 (New England Nuclear, Boston, Mass.) (171 Ci mmol^−1), in a final volume of 0.2 mL. […] Total and non-specific binding were determined in the absence and the presence of 10 μM PGD2, respectively. […] The radioactivity was measured with Betaplate model 1205 (Wallac).
pKi: −log10 of the molar value.

The examples below pair each entry with its known result.
Give the reported pKi for this molecule. C[C@H](NC(=O)c1ccc2nc(-c3ccccc3)c(OCCCC(=O)O)nc2c1)c1ccccc1 [10D]
7.70 to 8.68

// fetch pKi given entry C[C@H](NC(=O)c1ccc2nc(-c3ccccc3)c(CCCCC(=O)O)nc2c1)c1ccc(F)cc1 [15E]
8.70 to 10.00

Continuing:
Specify pKi for CC(C)Oc1ccc(-c2nc3ccc(C(=O)N4CCC(c5ccccc5)CC4)cc3nc2CCCCC(=O)O)cc1 and stop.
6.70 to 7.70

Find the measured pKi of CC(CCc1nc2cc(C(=O)NCc3cccc(Cl)c3)ccc2nc1-c1ccc(C(F)(F)F)cc1)CC(=O)O (stereo not shown) [17Q] and report it.
7.70 to 8.68

Write down pKi measured for item O=C(N[C@@H]1CCCc2ccccc21)c1ccc2nc(-c3ccccc3)c(CCCC(F)C(=O)O)nc2c1 (mixture of isomers) [compound 38]
6.70 to 7.70

For the molecule O=C(O)CCCOc1nc2cc(C(=O)NCc3ccc(Cl)cc3)ccc2nc1-c1ccccc1 [10C] , give its reported pKi.
8.70 to 10.00

Input C[C@@H]1CN(c2ccc(F)cc2)CCN1C(=O)c1ccc2nc(-c3ccccc3)c(CCCCC(=O)O)nc2c1 , output reported pKi.
7.70 to 8.68

Provide one value: measured pKi of CC(CCc1nc2cc(C(=O)N3CCC[C@H](c4ccccc4)C3)ccc2nc1-c1ccc(Cl)cc1)CC(=O)O (stereo partly shown) [17J]
7.70 to 8.68

Kindly indicate its recorded pKi. Item: CC(CCCc1nc2cc(C(=O)N(C)Cc3ccccc3)ccc2nc1-c1ccc(F)cc1)C(=O)O (stereo not shown)
7.70 to 8.68

Supply recorded pKi for O=C(O)CCCCc1nc2cc(C(=O)N3CCCC(c4ccccc4)C3)ccc2nc1-c1ccccc1 (stereo not shown) [15Y] here.
8.70 to 10.00

Answer with the recorded pKi of CN(C)C(=O)c1ccc2nc(-c3ccc(F)cc3)c(CCCCC(=O)O)nc2c1 only.
6.70 to 7.70

Give a short answer stating reported pKi for O=C(O)CCCCc1nc2cc(C(=O)NCc3ccc(OC(F)(F)F)cc3)ccc2nc1-c1ccc(F)cc1 .
7.70 to 8.68

Tell us which pKi value is on record for COc1ccc([C@@H](C)NC(=O)c2ccc3nc(-c4ccc(Cl)cc4)c(CCC(C)CC(=O)O)nc3c2)cc1 (stereo partly shown) [17o]
8.70 to 10.00

Fill in reported pKi for this entry: O=C(O)CCCCc1nc2cc(C(=O)NCc3cccc(C(F)(F)F)c3)ccc2nc1-c1ccc(Cl)cc1 [16AB]
8.70 to 10.00

Report pKi for C[C@H](c1ccc(F)cc1)N(C)C(=O)c1ccc2nc(-c3ccccc3)c(CCCCC(=O)O)nc2c1
7.70 to 8.68

Return reported pKi. Input molecule: O=C(O)CCCCc1nc2cc(NC(=O)Cc3ccc(Cl)c(Cl)c3)ccc2nc1-c1ccccc1
6.70 to 7.70

Source: patent US9469615B2
